# Protocol Description: Mouse pharmacokinetic study of oral GE with and without ketoconazole, plasma with and without β-glucuronidase treatment
# Format: in vivo, male mice (C57BL6J)
# Experimental Setup: male, C57BL6J; mouse plasma; 250 mg/kg GE oral; 12 h; −βgd
Measurement Type: concentration at 12 h (ng/mL)
State the answer as a number, implicitly in ng/mL.

Previously resolved entries follow.
Compound	Measurement Type	Unit Of Measurement	Observed
CCCCCCCCCC(O)CC(=O)CCc1ccc(O)c(OC)c1 (stereo not shown) [10G, 10-gingerol]	concentration at 12 h	ng/mL	0.62
CCCCC/C=C/C(=O)CCc1ccc(O)c(OC)c1	concentration at 12 h	ng/mL	0.37
CCCCC[C@H](O)CC(=O)CCc1ccc(O)c(OC)c1	concentration at 12 h	ng/mL	0.33

The record that follows has no concentration at 12 h shown yet.
Memo: CCCCCCCC(O)CC(=O)CCc1ccc(O)c(OC)c1 (stereo not shown) , reported concentration at 12 h: 0.1
